Measured values drawn from patent US20230066011A1 for this set.

Target: human GST-DYRK1A (Homo sapiens)
pIC50: −log10 of the molar value.
OBSERVED_PROPERTY: pIC50

Consider the reported pIC50 for these compounds:
[
  {
    "SAMPLE_SMILES": "COc1cc(S(=O)(=O)N2CCOCC2)ccc1Nc1nc(N[C@@H]2CCOC2)c2c(C#N)c[nH]c2n1",
    "pIC50": "6.00 to 6.52"
  },
  {
    "SAMPLE_SMILES": "N#Cc1c[nH]c2nc(Nc3ccc(C(=O)N4CCOCC4)c4c3OCCO4)nc(NC3CC3)c12",
    "pIC50": "6.52 to 7.00"
  },
  {
    "SAMPLE_SMILES": "CCCNc1nc(Nc2ccc(C(=O)N3CCC(N4CCOCC4)CC3)c3c2OCCO3)nc2[nH]cc(C(F)(F)F)c12",
    "pIC50": "> 7.00"
  },
  {
    "SAMPLE_SMILES": "CNc1nc(Nc2ccc(C(=O)N3CCN(C4COC4)CC3)c3c2OCCO3)nc2[nH]cc(C#N)c12",
    "pIC50": "6.52 to 7.00"
  },
  {
    "SAMPLE_SMILES": "N#Cc1c[nH]c2nc(Nc3ccc(C(=O)N4CCN(C5COC5)CC4)c4c3OCCO4)nc(NC3CCC3)c12",
    "pIC50": "6.00 to 6.52"
  }
]

Record pIC50 per entry; entries follow.
1. N#Cc1c[nH]c2nc(Nc3ccc(C(=O)N4CC(CO)(CO)C4)c4c3OCCO4)nc(NCC3CC3)c12
2. CC[C@H](C)Nc1nc(Nc2ccc(P3(=O)CCN(C4COC4)CC3)cc2OC)nc2[nH]cc(C#N)c12
3. CC[C@H](C)Nc1nc(Nc2ccc(S(=O)(=O)N3CCC(N4CCOCC4)CC3)cc2OC)nc2[nH]cc(C#N)c12

Completion:
6.52 to 7.00
6.00 to 6.52
6.00 to 6.52

###

System: TNF-α
Test: Inhibition of LPS-induced TNF-α secretion of THP-1 monocytes (ELISA)
Format: cell-based, human
Conditions: Homo sapiens, THP-1; compound 0.5 μM, LPS 500 ng/mL, 24 hours; read-out: THP-1/TNF-α (% inhib)
Method: To evaluate an inhibitory effect on cytokine secretion of monocytes, THP-1 cells (ATCC, #TIB-202) as a human-derived monocyte line were cultured in an RPMI-1640 (Hyclone, SH30027.01) medium supplemented with 10% fetal bovine serum (Hyclone, SH30084.03), 1% penicillin streptomycin (Welgene, LS202-02), and 50 μM 2-mercaptoethanol (Gibco, #21985023). […]
Please use 1 whenever inhibition at 0.5 µM is not below 9%, and 0 whenever it is.

Prompt: Dear colleague, could you confirm whether COCCNc1nc(Nc2ccc(C(=O)N3CCN(C4COC4)CC3)c3c2OCCO3)nc2[nH]cc(C(F)(F)F)c12 has inhibition at 0.5 µM at or above 9%?
Completion: 1

Prompt: Please indicate if the recorded inhibition at 0.5 µM for C=CCNc1nc(Nc2ccc(S(=O)(=O)N3CCC(N4CCOCC4)CC3)cc2OC)nc2[nH]cc(C#N)c12 meets or exceeds 9%.
Completion: 1

Prompt: Can O=C(c1ccc(Nc2nc(NC3CCOCC3)c3c(C(F)(F)F)c[nH]c3n2)c2c1OCCO2)N1CCN(C2COC2)CC1 be said to have inhibition at 0.5 µM at or above 9%?
Completion: 1

Prompt: Quick check: does CCNc1nc(Nc2ccc(C(=O)N3CCC(N4CCOCC4)CC3)c3c2OCC3)nc2[nH]cc(C#N)c12 have inhibition at 0.5 µM greater than or equal to 9%?
Completion: 1

Prompt: Given the entry CNc1nc(Nc2ccc(C(=O)N3CC[C@@H](N4CCOCC4)C3)c3c2OCC3)nc2[nH]cc(C(F)(F)F)c12 , answer whether its inhibition at 0.5 µM meets or surpasses 9%.
Completion: 1

Prompt: In plain terms: is recorded inhibition at 0.5 µM at least 9% for O=C(c1ccc(Nc2nc(NC3CC3)c3c(C(F)(F)F)c[nH]c3n2)c2c1CCO2)N1CCC(N2CCOCC2)CC1 ?
Completion: 1

Prompt: Reported inhibition at 0.5 µM reaches at least 9% for CNc1nc(Nc2ccc(S(=O)(=O)N3CCC(N4CCOCC4)CC3)c3c2OCCO3)nc2[nH]cc(C(F)(F)F)c12 ?
Completion: 0

Prompt: Does the compound CCNc1nc(Nc2ccc(C(=O)N3CCN(C4COC4)CC3)c3c2OCCO3)nc2[nH]cc(C(F)(F)F)c12 have recorded inhibition at 0.5 µM that is 9% or more?
Completion: 0
